The measured values listed here are drawn from ChEMBL document CHEMBL1828602.

System: SH-SY5Y
protocol: Cytotoxicity against human SH-SY5Y cells by MTS assay
Format: cell-based
pIC50: −log10 of the molar value.
property-name: pIC50

// query # pIC50 lookup, item "Nc1nccc(-c2c[nH]c3cccc(O)c23)n1"
// result < 4.52

###

Tested on: HEp-2
protocol: Cytotoxicity against human Hep2 cells
Assay type: cell-based
property-name: IC50

// query # IC50 lookup, item Nc1nccc(-c2c[nH]c3cccc(O)c23)n1 [MERIDIANIN A]
// result > 100 µM

###

The entries below are paired with their reported pIC50.
Test system: Plasmodium falciparum
protocol: Antimalarial activity against transgenic Plasmodium falciparum 3D7 infected in human A positive erythrocytes after 72 hrs by luciferase reporter gene assay
Assay type: functional, organism-based
experimental-conditions: 3D7, 72 h
# pIC50: negative log10 of molar concentration; output just the value

* Nc1nccc(-c2c[nH]c3cccc(O)c23)n1 | 4.92
* CCN(CC)c1nccc(-c2c[nH]c3cc(Cl)ccc23)n1 | 3.70

// query # pIC50 lookup, item "COc1cccc2[nH]cc(-c3ccnc(N)n3)c12"
// result 4.40

###

// endpoint Ki / system D(1B) dopamine receptor (Homo sapiens, UniProt P21918)

- Nc1nc(Br)ncc1-c1c[nH]c2cccc(O)c12: > 10 µM

// query # Ki lookup, item "Nc1nccc(-c2c[nH]c3cccc(O)c23)n1"
// result > 10 µM

###

Sequence of the target: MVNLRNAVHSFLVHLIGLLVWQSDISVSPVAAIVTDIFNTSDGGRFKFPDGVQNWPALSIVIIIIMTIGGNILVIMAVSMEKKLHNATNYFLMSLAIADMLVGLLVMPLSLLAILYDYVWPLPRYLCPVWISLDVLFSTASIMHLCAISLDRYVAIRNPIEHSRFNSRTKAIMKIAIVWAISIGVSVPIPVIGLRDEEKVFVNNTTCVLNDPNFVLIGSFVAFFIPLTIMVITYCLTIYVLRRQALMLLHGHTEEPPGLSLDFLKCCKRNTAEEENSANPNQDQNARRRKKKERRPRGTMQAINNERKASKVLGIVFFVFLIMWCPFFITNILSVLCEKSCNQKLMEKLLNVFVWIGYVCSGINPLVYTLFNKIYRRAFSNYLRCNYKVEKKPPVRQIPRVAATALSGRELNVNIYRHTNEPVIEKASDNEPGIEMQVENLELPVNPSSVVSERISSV
pIC50: −log10 of the molar value.
property-name: pIC50

// query # pIC50 lookup, item "Nc1nc(Cl)ncc1-c1c[nH]c2cccc(O)c12"
// result < 5.00

###

pIC50: −log10 of the molar value.
// endpoint pIC50 / system 5-hydroxytryptamine receptor 1A (Homo sapiens, UniProt P08908)

• Nc1nc(Br)ncc1-c1c[nH]c2cccc(O)c12 = < 5.00

Shifting focus to the molecule that follows.
// query # pIC50 lookup, item "Nc1nc(Cl)ncc1-c1c[nH]c2cccc(O)c12"
// result < 5.00

###

test-system: 5-hydroxytryptamine receptor 1A (Homo sapiens, UniProt P08908)
Sequence (P08908 whole entry): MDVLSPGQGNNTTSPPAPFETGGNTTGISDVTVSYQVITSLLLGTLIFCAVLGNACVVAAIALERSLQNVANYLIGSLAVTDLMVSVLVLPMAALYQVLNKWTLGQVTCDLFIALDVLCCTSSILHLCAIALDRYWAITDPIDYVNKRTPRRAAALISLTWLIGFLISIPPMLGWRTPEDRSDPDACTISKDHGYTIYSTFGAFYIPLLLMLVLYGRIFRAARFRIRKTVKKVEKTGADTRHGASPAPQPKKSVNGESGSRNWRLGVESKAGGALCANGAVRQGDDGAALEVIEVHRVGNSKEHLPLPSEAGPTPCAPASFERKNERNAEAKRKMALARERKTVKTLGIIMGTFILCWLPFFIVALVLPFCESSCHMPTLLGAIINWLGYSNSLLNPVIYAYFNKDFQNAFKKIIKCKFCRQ
property-name: pKi
# pKi: negative log10 of molar concentration; output just the value

// query # pKi lookup, item "Nc1nccc(-c2c[nH]c3cccc(O)c23)n1"
// result 6.16

###

test-system: Muscarinic acetylcholine receptor M5 (Homo sapiens)
pIC50: −log10 of the molar value.
property-name: pIC50

// query # pIC50 lookup, item "COc1cccc2[nH]cc(-c3ccnc(N)n3)c12"
// result < 5.00

###

Target protein (sequence): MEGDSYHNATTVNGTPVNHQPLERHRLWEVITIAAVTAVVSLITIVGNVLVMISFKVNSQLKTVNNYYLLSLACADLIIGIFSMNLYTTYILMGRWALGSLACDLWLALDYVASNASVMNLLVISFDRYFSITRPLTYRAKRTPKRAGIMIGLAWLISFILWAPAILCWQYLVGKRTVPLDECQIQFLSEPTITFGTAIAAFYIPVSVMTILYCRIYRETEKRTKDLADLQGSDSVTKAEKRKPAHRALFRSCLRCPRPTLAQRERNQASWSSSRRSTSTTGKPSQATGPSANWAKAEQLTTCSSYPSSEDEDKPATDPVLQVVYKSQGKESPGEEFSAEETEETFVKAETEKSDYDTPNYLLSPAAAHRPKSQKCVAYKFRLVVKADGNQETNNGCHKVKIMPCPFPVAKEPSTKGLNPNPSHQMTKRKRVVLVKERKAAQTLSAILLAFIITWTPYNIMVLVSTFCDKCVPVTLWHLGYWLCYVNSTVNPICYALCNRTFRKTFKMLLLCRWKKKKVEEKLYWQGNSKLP
property-name: pKi
# pKi: negative log10 of molar concentration; output just the value

// query # pKi lookup, item "Nc1nc(Cl)ncc1-c1c[nH]c2cccc(O)c12"
// result 5.15

###

Test system: A549
protocol: Cytotoxicity against human A549 cells after 72 hrs
Format: cell-based
experimental-conditions: Homo sapiens, A549, 72 h
property-name: IC50

// query # IC50 lookup, item Nc1nccc(-c2c[nH]c3cccc(O)c23)n1 [MERIDIANIN A]
// result 15 µM

// query And for "COc1cccc2[nH]cc(-c3ccnc(N)n3)c12" ?
// result > 420 µM

// query And for "Nc1nc(Cl)ncc1-c1c[nH]c2cccc(O)c12" ?
// result > 256 µM

// query And for CCN(CC)c1nccc(-c2c[nH]c3cc(Cl)ccc23)n1 [MERIDOQUIN] ?
// result > 333 µM

// query And for Nc1nc(Br)ncc1-c1c[nH]c2cccc(O)c12 [PSAMMOPEMMIN A] ?
// result > 219 µM
